Target: rP2X4R S212A mutant (Rattus norvegicus, UniProt P51577, S212A)
Sequence (P51577 whole entry S212A): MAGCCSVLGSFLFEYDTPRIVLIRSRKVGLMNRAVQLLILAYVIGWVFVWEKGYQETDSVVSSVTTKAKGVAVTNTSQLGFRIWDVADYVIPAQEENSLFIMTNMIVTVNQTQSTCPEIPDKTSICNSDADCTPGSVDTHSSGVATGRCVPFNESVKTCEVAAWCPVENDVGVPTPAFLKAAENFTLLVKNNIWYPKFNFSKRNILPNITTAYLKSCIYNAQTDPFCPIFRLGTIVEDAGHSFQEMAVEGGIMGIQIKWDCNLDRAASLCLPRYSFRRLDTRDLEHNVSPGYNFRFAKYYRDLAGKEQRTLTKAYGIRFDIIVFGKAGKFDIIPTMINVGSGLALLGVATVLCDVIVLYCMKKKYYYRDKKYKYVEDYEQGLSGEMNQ
Assay: whole-cell patch clamp, HEK293T cells expressing mutant
Settings: naïve receptors, 2–5 s application
Endpoint label: EC50

Exercise: Input Nc1ncnc2c1ncn2[C@@H]1O[C@H](COP(=O)(O)OP(=O)(O)OP(=O)(O)O)[C@@H](O)[C@H]1O [ATP] , output reported EC50.
Solution: 4.8 µM

###

Target: rP2X4R P207A mutant (Rattus norvegicus, UniProt P51577, P207A)
Sequence (P51577 whole entry P207A): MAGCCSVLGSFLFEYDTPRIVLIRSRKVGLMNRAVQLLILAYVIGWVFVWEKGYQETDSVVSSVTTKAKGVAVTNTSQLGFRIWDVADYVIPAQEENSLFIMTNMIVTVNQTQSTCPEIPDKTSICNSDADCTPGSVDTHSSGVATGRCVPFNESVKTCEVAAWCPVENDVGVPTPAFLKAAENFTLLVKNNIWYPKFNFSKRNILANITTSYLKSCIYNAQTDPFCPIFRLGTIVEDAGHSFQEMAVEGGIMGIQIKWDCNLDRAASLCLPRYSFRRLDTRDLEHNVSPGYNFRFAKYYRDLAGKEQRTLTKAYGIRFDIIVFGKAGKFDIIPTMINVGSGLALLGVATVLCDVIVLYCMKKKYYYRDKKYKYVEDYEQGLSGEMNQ
Test: whole-cell patch clamp, HEK293T cells expressing mutant
Conditions: naïve receptors, 2–5 s application
Endpoint label: pEC50
Just the number, please; pEC50 means minus log10 of the concentration in mol/L.

Exercise: Input Nc1ncnc2c1ncn2[C@@H]1O[C@H](COP(=O)(O)OP(=O)(O)OP(=O)(O)O)[C@@H](O)[C@H]1O [ATP] , output reported pEC50.
Solution: 5.68

###

Molecular target: rP2X4R I209A mutant (Rattus norvegicus, UniProt P51577, I209A)
Sequence (P51577 whole entry I209A): as the sequence (P51577 whole entry P207A) above, with A207P, I209A counted along it
Assay: whole-cell patch clamp, HEK293T cells expressing mutant
Details: naïve receptors, 2–5 s application
Endpoint label: EC50
Record the result as a number with its unit.

Exercise: Input Nc1ncnc2c1ncn2[C@@H]1O[C@H](COP(=O)(O)OP(=O)(O)OP(=O)(O)O)[C@@H](O)[C@H]1O , output reported EC50.
Solution: 4.3 µM

###

Target: rP2X4R Y213A mutant (Rattus norvegicus, UniProt P51577, Y213A)
Sequence (P51577 whole entry Y213A): as the sequence (P51577 whole entry S212A) above, with A212S, Y213A counted along it
Assay: whole-cell patch clamp, HEK293T cells expressing mutant
Conditions: naïve receptors, 2–5 s application
Endpoint label: pEC50
Just the number, please; pEC50 means minus log10 of the concentration in mol/L.

Exercise: Input Nc1ncnc2c1ncn2[C@@H]1O[C@H](COP(=O)(O)OP(=O)(O)OP(=O)(O)O)[C@@H](O)[C@H]1O , output reported pEC50.
Solution: 5.22
